# Test system: K562
# method_description: Cytotoxicity against human K562 cells after 72 hrs by MTT assay
# Type: functional, cell-based
# condition_set: K562, 72 h
compounds and their reported log10 IC50
metric_name: log10 IC50 (log10 of the value in nM)

>>> observed_value("CCCCCCCCCCC(SC(=O)c1cc(OC)c(OC)c(OC)c1)c1cc(OC)c2c(c1OC)/C(=N/O)C=C/C2=N\\O (stereo not drawn)")
3.29
>>> observed_value("CCCCCCCC(SCCC(C)C)c1cc(OC)c2c(c1OC)/C(=N/O)C=C/C2=N\\O (stereo not drawn)")
3.00
>>> observed_value("CCCCCCCCCC(SC(=O)c1cc(OC)c(OC)c(OC)c1)c1cc(OC)c2c(c1OC)/C(=N/O)C=C/C2=N\\O (stereo not drawn)")
2.90
>>> observed_value("CCCCCCCCCC(SCCC(C)C)c1cc(OC)c2c(c1OC)/C(=N/O)C=C/C2=N\\O (stereo not drawn)")
2.99
>>> observed_value("CCCCCCCCC(SC(=O)c1ccco1)c1cc(OC)c2c(c1OC)/C(=N/O)C=C/C2=N\\O (stereo not drawn)")
3.14
>>> observed_value("CCCCCCCCCCC(SCCC(C)C)c1cc(OC)c2c(c1OC)/C(=N/O)C=C/C2=N\\O (stereo not drawn)")
3.74
>>> observed_value("CCCCCCCCC(SCC)c1cc(OC)c2c(c1OC)/C(=N/O)C=C/C2=N\\O (stereo not drawn)")
3.43
>>> observed_value("CCCCCCCCC(SC(=O)c1ccc(OC)c(OC)c1)c1cc(OC)c2c(c1OC)/C(=N/O)C=C/C2=N\\O (stereo not drawn)")
2.88
>>> observed_value("CCCCCCCCCCC(SCCCCCC)c1cc(OC)c2c(c1OC)/C(=N/O)C=C/C2=N\\O (stereo not drawn)")
4.03
>>> observed_value("CCCCCCCCCCCCCCC(SCCC(C)C)c1cc(OC)c2c(c1OC)/C(=N/O)C=C/C2=N\\O (stereo not drawn)")
4.41
>>> observed_value("CCCCCCC(SC(=O)c1cc(OC)c(OC)c(OC)c1)c1cc(OC)c2c(c1OC)/C(=N/O)C=C/C2=N\\O (stereo not drawn)")
3.18
>>> observed_value("CCCCCCCCCCC(SCCCCC)c1cc(OC)c2c(c1OC)/C(=N/O)C=C/C2=N\\O (stereo not drawn)")
3.86
>>> observed_value("CCCCCCCCCCCCC(SCCC(C)C)c1cc(OC)c2c(c1OC)/C(=N/O)C=C/C2=N\\O (stereo not drawn)")
4.00
>>> observed_value("CCCCCCC(SCCC(C)C)c1cc(OC)c2c(c1OC)/C(=N/O)C=C/C2=N\\O (stereo not drawn)")
3.11
>>> observed_value("CCCCCCCCCCCCC(SC(=O)c1cc(OC)c(OC)c(OC)c1)c1cc(OC)c2c(c1OC)/C(=N/O)C=C/C2=N\\O (stereo not drawn)")
3.64
>>> observed_value("CCCCC(SCCC(C)C)c1cc(OC)c2c(c1OC)/C(=N/O)C=C/C2=N\\O (stereo not drawn)")
3.31
>>> observed_value("O=c1[nH]cc(F)c(=O)[nH]1")
4.09
>>> observed_value("CCCCCCCCC(c1cc(OC)c2c(c1OC)/C(=N/O)C=C/C2=N\\O)S(=O)(=O)CCC(C)C (stereo not drawn)")
3.11
